Attribution: ChEMBL document CHEMBL5724914

# Measurement Protocol: The drug is tested on WLS-069 corresponding to human gut metagenome with ENA study accession number: PRJEB37062 and ENA sample accession number: ERS12561748 for biotransformation under anaerobic condition. The drug concentrations were measured over 9 timepoints collected between 0 and 24 hours of incubation by liquid-chromatography-coupled mass spectrometry (LC–MS); further: call rule not given here
# Measurement Setup: 2 µM
Metric: Bacterial Biotransformation

Example results:
Compound	Bacterial Biotransformation
Cc1cn([C@H]2C[C@H](N=[N+]=[N-])[C@@H](CO)O2)c(=O)[nH]c1=O	Compound NOT metabolized
CC(C)c1c(C(=O)Nc2ccccc2)c(-c2ccccc2)c(-c2ccc(F)cc2)n1CC[C@@H](O)C[C@@H](O)CC(=O)O	Compound metabolized
CCCCC1=NC2(CCCC2)C(=O)N1Cc1ccc(-c2ccccc2-c2nnn[nH]2)cc1	Compound metabolized
COc1c(C)c2c(c(O)c1C/C=C(\C)CCC(=O)OCCN1CCOCC1)C(=O)OC2 [MYCOPHENOLATE MOFETIL]	Compound metabolized

What does the data say about its Bacterial Biotransformation? Entry: NC(=O)N1c2ccccc2CC(=O)c2ccccc21 [OXCARBAZEPINE]
Compound NOT metabolized

What does the data say about its Bacterial Biotransformation? Entry: CC(C)(C#N)c1cc(Cn2cncn2)cc(C(C)(C)C#N)c1
Compound metabolized

What does the data say about its Bacterial Biotransformation? Entry: CC(O)(CS(=O)(=O)c1ccc(F)cc1)C(=O)Nc1ccc(C#N)c(C(F)(F)F)c1 (stereo not drawn) [BICALUTAMIDE]
Compound NOT metabolized

What does the data say about its Bacterial Biotransformation? Entry: Br.CN(C)CCCC1(c2ccc(F)cc2)OCc2cc(C#N)ccc21 (stereo not drawn) [CITALOPRAM HYDROBROMIDE]
Compound metabolized
